Origin of values: PubChem BioAssay (NCATS)

- Protocol Notes: Cellular Toxicity (caspase-3) NIH 3T3 (AID 666);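 further: caspase signal read after 16 h compound exposure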
- Experimental Context: NIH 3T3 caspase-3 activation, apoptosis/toxicity, 0% DMSO, 100% is 100 µM tamoxifen; series mostly up to 92.2 µM
Results filed as inconclusive are left out. Active and inactive are the calls of the source. The call rests on the fitted dose curve; in most records, active means well fitted activation curve with a large enough effect; inconclusive means small, poorly fitted or top-dose-only effect, or effect the other way; inactive means flat fitted curve, though single readings scatter.
Quantity Kind: outcome

CCCCOC(=O)c1ccc(O)cc1 | inactive
Oc1cccc(O)c1 | inactive
O=C1O[C@H]([C@@H](O)CO)C(O)=C1O | inactive

---

- Tested on: Tov112D
- Protocol Notes: Primary qHTS to identify gynecologic anti-cancer compounds using libraries of approved drugs and bioactive compounds (AID 1345084); further: nearly all actives have a fitted effect of over 55% in size
- Experimental Context: Gynecologic cancer cell panel viability, ATPlite luminescence, 48 h; series mostly up to 57.5 µM
Records with an inconclusive call do not appear. Activity calls are given as the source filed them. The call rests on the fitted dose curve; in most records, active means well fitted cell-killing curve with a large enough effect; inconclusive means small, poorly fitted or top-dose-only effect, or effect the other way; inactive means flat fitted curve, though single readings scatter.
Quantity Kind: activity change, negative = cytotoxicity

COc1ccc(Cl)cc1C(=O)NCCc1ccc(S(=O)(=O)NC(=O)NC2CCCCC2)cc1 | inactive
NC(=O)c1ncn([C@@H]2O[C@H](CO)[C@@H](O)[C@H]2O)n1 | inactive
CCn1cc(C(=O)O)c(=O)c2cnc(N3CCNCC3)nc21 | inactive
Oc1cccc(O)c1 | inactive
C[C@@H]1CN(c2c(F)c(F)c3c(=O)c(C(=O)O)cn(C4CC4)c3c2F)C[C@H](C)N1 | inactive

Now take the following compound into account.
Fill in the blank: the reported activity change, negative = cytotoxicity of `Nc1ccc(S(=O)(=O)Nc2nccs2)cc1` is ____.
inactive

---

- Test system: Zika virus NS2B-NS3 protease
- Protocol Notes: Primary screen GU AMC qHTS for Zika virus inhibitors (AID 1347154); further: nearly all actives have a fitted effect of over 70% in size
- Experimental Context: Zika NS2B-NS3 unlinked protease, AMC fluorogenic substrate; series mostly up to 54.1 µM
Records with an inconclusive call do not appear. Active and inactive are the calls of the source. The call rests on the fitted dose curve; in most records, active means well fitted inhibition curve with a large enough effect; inconclusive means small, poorly fitted or top-dose-only effect; inactive means flat fitted curve, though single readings scatter.
Quantity Kind: activity change, negative = inhibition

Past entries and their recorded results:
CC1=C(C/C=C(\C)CCC[C@H](C)CCC[C@H](C)CCCC(C)C)C(=O)c2ccccc2C1=O | inactive
Oc1cn2c(n1)Nc1ccc(Cl)c(Cl)c1C2 | inactive
CC(C(O)c1ccc(O)cc1)N1CCC(Cc2ccccc2)CC1 (configuration not stated) | inactive
CCCCN(CCCC)CCCOC(=O)c1ccc(N)cc1 | inactive

activity change, negative = inhibition of CC(CN(C)C)CN1c2ccccc2CCc2ccccc21 (configuration not stated) on Zika virus NS2B-NS3 protease?
inactive

Next up: `N[C@H](C(=O)O)c1ccc(O)cc1`
inactive

Next up: `CCCCOC(=O)c1ccc(O)cc1`
inactive

---

- Protocol Notes: qHTS of pediatric cancer cell lines to identify multiple opportunities for drug repurposing: Primary screen for SK-N-SH cells (AID 1347098); further: nearly all actives have a fitted effect of over 65% in size
- Experimental Context: SK-N-SH viability, CellTiter-Glo luminescence, 48 h; series mostly up to 57 µM
Inconclusive results are not listed. The source made the active and inactive calls. Calls follow the shape of the dose curve; as a rule, active = well fitted cell-killing curve with a large enough effect; inconclusive = small, poorly fitted or top-dose-only effect; inactive = no such curve, though single readings can be large or run the other way.
Entry note: the call must match one of active, inactive

Please state the recorded outcome for this compound: `CC(=O)CCC(=O)O`
inactive

Next up: CCCCCCCCCCCCCCCCCCOCC(O)CO (stereo unspecified)
inactive

Next up: `Cc1cc(O)cc2c1O[C@](C)(CCC[C@H](C)CCC[C@H](C)CCCC(C)C)CC2`
inactive

Next up: O=C1OC(OC(=O)c2cccnc2Nc2cccc(C(F)(F)F)c2)c2ccccc21 (stereo unspecified)
inactive

Next up: `O=C(O)c1ccccc1O`
inactive

Next up: `CC(C)c1c(C(=O)Nc2ccccc2)c(-c2ccccc2)c(-c2ccc(F)cc2)n1CC[C@@H](O)C[C@@H](O)CC(=O)O`
active

Next up: `Nc1ccc(S(=O)(=O)Nc2ccccc2)cc1`
inactive

Next up: `COc1ccc(S(=O)(=O)Nc2nnc(CC(C)C)s2)cc1`
inactive

Next up: `c1ccc(CN(CC2=NCCN2)c2ccccc2)cc1`
inactive

Next up: `[Cl][In]([Cl])[Cl]`
inactive

Next up: `CC/C=C(\C(=O)N[C@@H]1C(=O)N2C(C(=O)OCOC(=O)C(C)(C)C)=C(COC(N)=O)CS[C@H]12)c1csc(N)n1`
inactive
